Taken from patent US9144239B2.

Tested on: Puccinia triticina; synonym: Puccinia recondita f. sp. tritici
Assay: Fungicidal activity: wheat brown rust (PUCCRT), wheat seedlings
Format: in vivo
Details: 72 h; 100 ppm; 3 Day Curative; wheat; read-out: Disease Control PUCCRT 3DC
Property: pest or weed control at 100 ppm; scope: individual compounds

# compound, pest or weed control at 100 ppm
records = [
    ("COc1ccnc(C(=O)N[C@H]2COC[C@H](OCC3CC3)[C@@H](OCC3CC3)[C@H](C)OC2=O)c1OC(C)=O [Compound 232]", "80 to 100%"),
    ("COc1ccnc(C(=O)NC2COC[C@H](OCc3ccccc3)[C@@H](OCc3ccccc3)[C@H](C)OC2=O)c1OCOC(C)=O (stereo partly shown) [Compound 12]", "80 to 100%"),
    ("CC[C@H]1OC(=O)[C@H](NC(=O)c2nccc(OC)c2OCOC(C)=O)COC[C@H](OCC(C)C)[C@H]1OCC(C)C [Compound 24]", "0 to 80%"),
    ("COc1ccnc(C(=O)N[C@H]2COC[C@H](OC3CCCCC3)[C@@H](OCC(C)C)[C@H](C)OC2=O)c1O [Compound 73]", "80 to 100%"),
]

====

Tested on: Puccinia triticina; synonym: Puccinia recondita f. sp. tritici
Assay: Fungicidal activity: wheat brown rust (PUCCRT), wheat seedlings
Format: in vivo
Settings: 72 h; 100 ppm; 3 Day Curative; wheat; read-out: Disease Control PUCCRT 3DC
reportedProperty: pest or weed control at 100 ppm

# compoundSmiles, testSystem, result
rows = [
    ("COc1ccnc(C(=O)N[C@H]2COC[C@H](OC3CCCCC3)[C@@H](OCC(C)C)[C@H](C)OC2=O)c1OCOC(C)=O", "Puccinia triticina; synonym: Puccinia recondita f. sp. tritici", "80 to 100%"),
    ("CCOCC(=O)OCOc1c(OC)ccnc1C(=O)N[C@H]1COC[C@H](Oc2ccc(F)cc2)[C@@H](OCC(C)C)[C@H](C)OC1=O", "Puccinia triticina; synonym: Puccinia recondita f. sp. tritici", "80 to 100%"),
    ("COc1ccnc(C(=O)N[C@H]2COC[C@H](OCC(C)C)[C@@H](OC3CCCCC3)[C@H](C)OC2=O)c1O", "Puccinia triticina; synonym: Puccinia recondita f. sp. tritici", "80 to 100%"),
]

====

System: Puccinia triticina; synonym: Puccinia recondita f. sp. tritici
Test: Fungicidal activity: wheat brown rust (PUCCRT), wheat seedlings
Assay type: in vivo
Details: 72 h; 100 ppm; 3 Day Curative; wheat; read-out: Disease Control PUCCRT 3DC
reportedProperty: pest or weed control at 100 ppm

# compoundSmiles, result
records = [
    ("COc1ccnc(C(=O)N[C@H]2COC[C@H](OC)[C@@H](OC)[C@H](C)OC2=O)c1OCOC(C)=O", "0 to 80%"),
    ("COc1ccnc(C(=O)N[C@H]2COC[C@H](Oc3ccccc3)[C@@H](Oc3ccccc3)[C@H](C)OC2=O)c1OCOC(=O)C(C)C", "80 to 100%"),
    ("COc1ccnc(C(=O)N[C@H]2COC[C@H](OC3CCCC3)[C@@H](Oc3ccccc3)[C@H](C)OC2=O)c1O", "80 to 100%"),
]

====

Listed below: melting point values for each entry.
reportedProperty: melting point

# compoundSmiles, result
data = [
    ("CCCCO[C@H]1COC[C@H](NC(=O)OC(C)(C)C)C(=O)O[C@@H](C)[C@@H]1OC(=O)C(C)C", "69 to 71 °C"),
    ("CCCCO[C@H]1[C@H](C)OC(=O)[C@@H](NC(=O)OC(C)(C)C)COC[C@@H]1OCc1ccccc1", "51 to 54 °C"),
    ("COc1ccc(O[C@H]2[C@H](C)OC(=O)[C@@H](N)COC[C@@H]2OC(=O)C(C)C)cc1.Cl", "207 to 208 °C"),
    ("C[C@@H]1OC(=O)[C@@H](N(C(=O)OC(C)(C)C)C(=O)OC(C)(C)C)COC[C@H](O)[C@H]1Oc1ccccc1", "110 to 112 °C"),
    ("COc1ccnc(C(=O)N[C@H]2COC[C@H](OC3CCCCC3)[C@@H](OCC(C)C)[C@H](C)OC2=O)c1O", "122 to 125 °C"),
    ("COc1ccnc(C(=O)N[C@H]2COC[C@H](OC)[C@@H](OC)[C@H](C)OC2=O)c1O", "165 to 167 °C"),
    ("Cc1cc(C)cc(O[C@H]2[C@H](C)OC(=O)[C@@H](N)COC[C@@H]2Oc2cc(C)cc(C)c2)c1.Cl", "212 °C"),
]

====

Recorded pest or weed control at 100 ppm values for a group of molecules are listed next.
Test system: Puccinia triticina; synonym: Puccinia recondita f. sp. tritici
Assay: Fungicidal activity: wheat brown rust (PUCCRT), wheat seedlings
Type: in vivo
Conditions: 72 h; 100 ppm; 3 Day Curative; wheat; read-out: Disease Control PUCCRT 3DC

# compoundSmiles, pest or weed control at 100 ppm
rows = [
    ("COc1ccnc(C(=O)N[C@H]2CO[C@H](C)[C@H]3OC(C)(C)O[C@@H]3[C@@H](C)OC2=O)c1OCOC(C)=O", "0 to 80%"),
    ("CCCCO[C@H]1COC[C@H](NC(=O)c2nccc(OC)c2OCOC(C)=O)C(=O)O[C@@H](C)[C@@H]1OC", "80 to 100%"),
    ("CCCCO[C@H]1COC[C@H](NC(=O)c2nccc(OC)c2OCOC(C)=O)C(=O)O[C@@H](C)[C@@H]1OCC(F)F", "80 to 100%"),
    ("COc1ccnc(C(=O)N[C@@H]2COC[C@H](OCC(C)C)[C@@H](OCC(C)C)COC2=O)c1O", "0 to 80%"),
    ("COc1ccnc(C(=O)N[C@H]2COC[C@H](OCc3ccccc3)[C@@H](OCc3ccccc3)COC2=O)c1O", "0 to 80%"),
    ("COc1ccnc(C(=O)N[C@H]2COC[C@H](Oc3ccccc3)[C@@H](Oc3ccccc3)[C@H](C)OC2=O)c1OC(C)=O", "80 to 100%"),
    ("CCCCO[C@H]1[C@H](C)OC(=O)[C@@H](NC(=O)c2nccc(OC)c2O)COC[C@@H]1OCc1ccccc1", "80 to 100%"),
    ("C=C(C)CO[C@H]1COC[C@@H](NC(=O)c2nccc(OC)c2O)C(=O)OC[C@@H]1OCC(=C)C", "0 to 80%"),
    ("CCCO[C@H]1[C@H](C)OC(=O)[C@@H](NC(=O)c2nccc(OC)c2OCOC(C)=O)COC[C@@H]1OCCC", "80 to 100%"),
    ("CCCO[C@H]1[C@H](C)OC(=O)[C@@H](NC(=O)c2nccc(OC)c2OCOC(C)=O)COC[C@@H]1Oc1ccccc1", "80 to 100%"),
    ("COc1ccnc(C(=O)N[C@H]2COC[C@H](Oc3ccc(F)cc3)[C@@H](OCC(C)C)[C@H](C)OC2=O)c1O", "80 to 100%"),
    ("CCC(C)(C)O[C@H]1COC[C@H](NC(=O)c2nccc(OC)c2OCOC(C)=O)C(=O)O[C@@H](C)[C@@H]1OCC(C)C", "80 to 100%"),
    ("COc1ccnc(C(=O)N[C@@H]2COC[C@H](OCC(C)C)[C@@H](OCC(C)C)COC2=O)c1OCOC(C)=O", "0 to 80%"),
    ("COc1ccnc(C(=O)N[C@H]2COC[C@H](OCCCC(F)(F)F)[C@@H](OCCCC(F)(F)F)[C@H](C)OC2=O)c1OCOC(C)=O", "80 to 100%"),
]

====

This listing pairs molecules with measured melting point.
reportedProperty: melting point

# compoundSmiles, result
rows = [
    ("COc1ccnc(C(=O)N[C@H]2COC[C@H](OCCC(C)C)[C@@H](OCCC(C)C)[C@H](C)OC2=O)c1O", "61 to 70 °C"),
    ("CCCCO[C@H]1COC[C@H](NC(=O)c2nccc(OC)c2O)C(=O)O[C@@H](C)[C@@H]1OCC(C)C", "104 to 106 °C"),
    ("COc1ccnc(C(=O)N[C@H]2COC[C@H](OCC(C)C)[C@@H](OCC(C)C)COC2=O)c1OCOC(C)=O", "58 to 64 °C"),
    ("C=C(C)CO[C@H]1[C@H](C)OC(=O)[C@@H](NC(=O)OCc2ccccc2)COC[C@@H]1OCC(=C)C", "90 to 91 °C"),
    ("COc1ccnc(C(=O)N[C@H]2COC[C@H](OCC3CC3)[C@@H](OCC3CC3)[C@H](C)OC2=O)c1OC(C)=O", "54 to 60 °C"),
    ("CCC(C)(C)O[C@H]1COC[C@H](NC(=O)c2nccc(OC)c2O)C(=O)O[C@@H](C)[C@@H]1OCC(C)C", "138 to 140 °C"),
    ("COc1ccnc(C(=O)N[C@H]2COC[C@H](Oc3ccccc3)[C@@H](OCC(C)C)[C@H](C)OC2=O)c1O", "112 to 113 °C"),
]
